Every entry's value here was drawn from patent US20240309016A1.

# tgt: human OX2 receptor (Homo sapiens)
# Construct: expressed in transfected cells
# assayProtocol: Measurement of orexin type 2 receptor agonist activity (Experimental Example 2; Fluo-4 AM calcium fluorescence, FDSS μCELL)
# Type: cell-based
# studyConditions: compound at 3 μM; CHO cells expressing human OX2 receptor; DMSO = 0%, 10 nM orexin A (human) = 100%
measure: OX2R agonist activity (3 μM, %)

CCS(=O)(=O)N[C@H]1[C@@H](F)CN2C(=O)CCc3ccc(Cl)c(n3)Oc3cccc(c3F)C[C@@H]12 [Example 82]
101
CS(=O)(=O)N[C@@H]1[C@@H]2Cc3cccc(c3F)Oc3nc(ccc3C(F)F)CNC(=O)N2CC1(F)F [Example 41]
107
CCS(=O)(=O)N[C@H]1CCN2C(=O)NCc3nc(c(F)cc3F)Oc3cccc(c3)C[C@@H]12 [Example 20]
105
CCS(=O)(=O)N[C@H]1[C@@H](F)CN2C(=O)NCc3ccc(C(F)F)c(n3)Oc3cccc(c3F)C[C@@H]12 [Example 27]
102
Cc1ccc2nc1OCc1cccc(c1)C[C@H]1[C@@H](NS(C)(=O)=O)CCN1C(=O)NC2 [Example 68]
100
CS(=O)(=O)N[C@H]1[C@@H](F)CN2C(=O)NCc3ccc(Cl)c(c3)Oc3cccc(c3F)C[C@@H]12 [Example 12]
99
Cc1ccc2nc1Oc1cccc(c1F)C[C@H]1[C@@H](NS(=O)(=O)C(C)C)C(F)(F)CN1C(=O)NC2 [Example 97]
108
CS(=O)(=O)N[C@H]1CCN2C(=O)NCc3ccc(C(F)F)c(n3)Oc3cccc(c3)C[C@@H]12 [Example 8]
100
Cc1ccc2nc1Oc1cccc(c1F)C[C@H]1[C@@H](NS(=O)(=O)C3CC3)C(F)(F)CN1C(=O)NC2 [Example 23]
96
Cc1ccc2nc1Oc1cccc(c1)C[C@H]1[C@@H](NS(C)(=O)=O)CCN1C(=O)N(C)C2 [Example 40]
103
CCS(=O)(=O)N[C@@H]1[C@@H]2Cc3cccc(c3F)Oc3nc(ccc3C)CNC(=O)N2CC1(F)F [Example 5]
102
CN(C)S(=O)(=O)N[C@H]1[C@@H](F)CN2C(=O)NCc3ccc(C(F)F)c(n3)Oc3cccc(c3F)C[C@@H]12 [Example 37]
101
CS(=O)(=O)N[C@@H]1[C@@H]2Cc3cccc(c3F)Oc3nc(c(F)cc3Cl)CNC(=O)N2CC1(F)F [Example 30]
102
CCS(=O)(=O)N[C@@H]1[C@@H]2Cc3cccc(c3F)Oc3nc(c(F)cc3Cl)CNC(=O)N2CC1(F)F [Example 35]
93
Cc1ccc2nc1Oc1cccc(c1F)C[C@H]1[C@@H](NS(=O)(=O)C(F)F)C(F)(F)CN1C(=O)NC2 [Example 43]
101
Cc1ccc2nc1Oc1cc(ccc1F)C[C@H]1[C@@H](NS(C)(=O)=O)CCN1C(=O)NC2 (relative stereo) [Example 9]
93
Cc1ccc2nc1Oc1cccc(c1F)C[C@H]1[C@@H](NS(=O)(=O)N(C)C)C(F)(F)CN1C(=O)NC2 [Example 11]
98
CCS(=O)(=O)N[C@H]1[C@@H](F)CN2C(=O)COc3ccc(Cl)c(n3)Oc3cccc(c3)C[C@@H]12 [Example 69]
101
CS(=O)(=O)N[C@@H]1[C@@H]2Cc3cccc(c3F)Oc3nc(ncc3Cl)OCC(=O)N2CC1(F)F [Example 64]
105

----------
# tgt: human OX2 receptor (Homo sapiens)
# Construct: expressed in transfected cells
# assayProtocol: Measurement of orexin type 2 receptor agonist activity (Experimental Example 2; Fluo-4 AM calcium fluorescence, FDSS μCELL)
# Format: cell-based
# studyConditions: compound at 3 μM; CHO cells expressing human OX2 receptor; DMSO = 0%, 10 nM orexin A (human) = 100%
measure: OX2R agonist activity (3 μM, %)

CCS(=O)(=O)N[C@H]1[C@@H](F)CN2C(=O)N(C)Cc3ccc(Cl)c(n3)Oc3cccc(c3F)C[C@@H]12 [Example 73]
101
CN1Cc2ccc(Cl)c(n2)Oc2cccc(c2F)C[C@H]2[C@@H](NS(C)(=O)=O)C(F)(F)CN2C1=O [Example 57]
108
Cc1ccc2nc1Oc1cccc(c1)C[C@H]1[C@@H](NS(C)(=O)=O)CCN1C(=O)CO2 [Example 33]
102
CCS(=O)(=O)N[C@H]1[C@@H](F)CN2C(=O)NCc3ccc(F)c(n3)Oc3cccc(c3F)C[C@@H]12 [Example 31]
102
CS(=O)(=O)N[C@H]1[C@@H](F)CN2C(=O)NCc3ccc(Cl)c(n3)Oc3cccc(c3F)C[C@@H]12 [Example 15]
104
CCS(=O)(=O)N[C@@H]1[C@@H]2Cc3cccc(c3F)Oc3nc(cnc3C)OCC(=O)N2CC1(F)F [Example 81]
102
CS(=O)(=O)N[C@@H]1[C@@H]2Cc3cccc(c3)Oc3nc(ccc3Cl)CNC(=O)N2CC1(F)F [Example 92]
106
Cc1ccc2nc1Oc1cccc(c1F)C[C@H]1[C@@H](NS(C)(=O)=O)C(F)(F)CN1C(=O)NC2 [Example 4]
105
CN(C)S(=O)(=O)N[C@H]1[C@@H](F)CN2C(=O)NCc3ccc(Cl)c(n3)Oc3cccc(c3F)C[C@@H]12 [Example 34]
93
CCS(=O)(=O)N[C@H]1[C@@H](F)CN2C(=O)NCc3ccc(C)c(n3)Oc3cccc(c3)C[C@@H]12 [Example 42]
101
O=C1NCc2ccc(Cl)c(n2)Oc2cccc(c2F)C[C@H]2[C@@H](NS(=O)(=O)C3CC3)C(F)(F)CN12 [Example 22]
100
O=C1NCc2ccc(C(F)F)c(n2)Oc2cccc(c2F)C[C@H]2[C@@H](NS(=O)(=O)C3CC3)[C@@H](F)CN12 [Example 28]
94
Cc1cnc2nc1Oc1cccc(c1F)C[C@H]1[C@@H](NS(C)(=O)=O)C(F)(F)CN1C(=O)C1CCN21 (some centres unmarked) [Example 52]
93
CCS(=O)(=O)N[C@H]1[C@@H](F)CN2C(=O)COc3ccc(Cl)c(n3)Cc3cccc(c3F)C[C@@H]12 [Example 72]
104

----------
# tgt: human OX2 receptor (Homo sapiens)
# Construct: expressed in transfected cells
# assayProtocol: Measurement of orexin type 2 receptor agonist activity (Experimental Example 3; calcium 5 dye, FLIPR Tetra)
# Type: cell-based
# studyConditions: compound at 1 μM; CHO cells expressing human OX2 receptor; DMSO = 0%, 10 nM orexin A (human) = 100%
measure: OX2R agonist activity (1 μM, %)

CCS(=O)(=O)N[C@@H]1[C@@H]2Cc3cccc(c3F)Cc3nc(ccc3C)O[C@@H](C)C(=O)N2CC1(F)F [Example 111]
103
CCS(=O)(=O)N[C@@H]1[C@@H]2Cc3cccc(c3F)C(F)(F)c3nc(ccc3C)CNC(=O)N2CC1(F)F [Example 100]
84
CC(C)S(=O)(=O)N[C@@H]1[C@@H]2Cc3cccc(c3F)Oc3nc(ccc3C(F)F)CNC(=O)N2CC1(F)F [Example 110]
108

----------
# tgt: human OX2 receptor (Homo sapiens, UniProt O43614)
# Construct: expressed in transfected cells
# Sequence (O43614 1-444): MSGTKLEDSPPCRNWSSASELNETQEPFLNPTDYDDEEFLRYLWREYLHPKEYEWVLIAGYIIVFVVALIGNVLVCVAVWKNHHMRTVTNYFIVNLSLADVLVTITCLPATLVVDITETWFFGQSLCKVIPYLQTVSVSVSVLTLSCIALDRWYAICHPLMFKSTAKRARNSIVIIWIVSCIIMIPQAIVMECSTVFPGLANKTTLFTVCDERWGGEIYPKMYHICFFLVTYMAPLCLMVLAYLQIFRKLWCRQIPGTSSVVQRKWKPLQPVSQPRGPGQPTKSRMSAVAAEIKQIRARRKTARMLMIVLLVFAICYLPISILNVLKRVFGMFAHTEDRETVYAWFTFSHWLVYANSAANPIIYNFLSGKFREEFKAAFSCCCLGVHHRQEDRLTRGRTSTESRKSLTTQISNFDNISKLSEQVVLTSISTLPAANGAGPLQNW
# assayProtocol: Measurement of orexin type 2 receptor agonist activity (Experimental Example 2; Fluo-4 AM calcium fluorescence, FDSS μCELL)
# Format: cell-based
# studyConditions: compound at 3 μM; CHO cells expressing human OX2 receptor; DMSO = 0%, 10 nM orexin A (human) = 100%
measure: OX2R agonist activity (3 μM, %)

CCS(=O)(=O)N[C@H]1CCN2C(=O)NCc3ccc(C)c(n3)Oc3cccc(c3)C[C@@H]12 [Example 3]
101
Cc1ccc2nc1Oc1cc(ccc1F)C[C@H]1[C@@H](NS(C)(=O)=O)C(F)(F)CN1C(=O)NC2 (relative stereo) [Example 86]
102
Cc1ncc2nc1Oc1cccc(c1F)C[C@H]1[C@@H](NS(C)(=O)=O)C(F)(F)CN1C(=O)CO2 [Example 65]
102
CCS(=O)(=O)N[C@@H]1[C@@H]2Cc3cccc(c3F)Oc3nc(ccc3OC)CNC(=O)N2CC1(F)F [Example 26]
102
